# test_target: Cdk2(R122C) (C177A) (Homo sapiens, UniProt P24941, C177A/R122C)
# Construct: poly-histidine; made in house; host or cells: E. coli
# procedure_details: Kinetic thiol consumption assay with Cdk2 mutant R122C
# Type: binding
# measurement_parameters: Protein: Cdk2; cysteine position R122C; additional mutation C177A; in h-1
Given measured Rate constant with Cdk2 R122C, output satisfied if it is greater than or equal to 0.005 and not satisfied if not.

Ask: Is Rate constant with Cdk2 R122C for `C=CC(=O)N1CC(Cc2ccccc2)C1` at or above 0.005?
Result: satisfied

Ask: Then this molecule: C=CC(=O)N1CCCC1c1cnc2ccccc2c1 (stereo not drawn)
Result: satisfied

Ask: Same question, `C=CC(=O)N1CC2(CCC2)c2c(F)cccc21` this time
Result: satisfied

Ask: Same thing, different molecule: `C=CC(=O)Nc1cccc2ncccc12`
Result: satisfied

Ask: Param item: `C=CC(=O)Nc1ccccc1-c1ccccc1`
Result: satisfied

Ask: Another molecule to check: `C=CC(=O)Nc1sc2c(c1C(=O)NC1CC1)CCC2`
Result: satisfied

Ask: Also check `C=CC(=O)NCc1ccc(F)cc1`
Result: not satisfied

Ask: Follow-up entry: `C=CC(=O)N(Cc1ccco1)Cc1ccco1`
Result: satisfied

Ask: Cool, now C=CC(=O)N1CCC2(CCCN(Cc3ccccc3)C2)C1 (stereo not drawn)
Result: not satisfied

Ask: What do you have for C=CC(=O)NCC1CCCN1S(=O)(=O)c1ccc(C)cc1 (stereo not drawn) ?
Result: not satisfied

Ask: And for `O=C(CCl)N1CCCCCC1` ?
Result: not satisfied

Ask: Moving on to the next molecule: `C=CC(=O)N1CCOC2(CCCCC2)C1`
Result: satisfied

Ask: Repeat with `C=CC(=O)N1CCN(Cc2noc(C3CC3)n2)CC1`
Result: satisfied

Ask: Another: `C=CC(=O)NCCNC(=O)c1ccccc1`
Result: not satisfied

Ask: # iterate: C=CC(=O)NC(C)c1cccc(N2CCOCC2)c1 (stereo not drawn)
Result: not satisfied

Ask: Proceed to C=CC(=O)N1CCCCCC1c1cccnc1 (stereo not drawn)
Result: not satisfied

Ask: Same read-out for `C=CC(=O)Nc1ccc(C23CC4CC(CC(O)(C4)C2)C3)cc1` ?
Result: not satisfied

Ask: Lookup C=CC(=O)Nc1cccc(C(F)(F)F)c1 [EL-1007]
Result: satisfied

Ask: Further, for `C=CC(=O)Nc1cccc(-c2nnnn2C2CC2)c1` ?
Result: satisfied

Ask: `C=CC(=O)Nc1ccccc1C(=O)c1ccccc1` , same question.
Result: satisfied

Ask: // query: C=CC(=O)N(C)C1C2CCOC2C1(C)C (stereo not drawn)
Result: not satisfied

Ask: Likewise for C=CC(=O)Nc1cccc(C(F)(F)F)c1 [BN-80] ?
Result: satisfied

Ask: And what about the molecule `C=CC(=O)N1CCC2(CC1)NC(=O)N(C)C2=O` ?
Result: not satisfied

Ask: Request: `C=CC(=O)N1CC(n2cccn2)C1`
Result: satisfied

Ask: How about `C=CS(=O)(=O)c1ccccc1` ?
Result: satisfied

Ask: Check `C=CC(=O)NC1(C2CC2)CC1` too.
Result: not satisfied

Ask: For `C=CC(=O)NC1(C(N)=O)CCCCC1` then?
Result: not satisfied

Ask: Do the same for `C=CC(=O)N1CC(OCc2cccc3ccccc23)C1` please
Result: satisfied

Ask: Consider next the molecule `C=CC(=O)NC1(c2noc(C)n2)CCCCCC1` in the same way.
Result: satisfied

Ask: Record: `C=CC(=O)N(CC(=O)NC1CC1)C1CC1`
Result: not satisfied

Ask: Check C=CC(=O)N1CCn2cccc2C1c1ccccc1 (stereo not drawn) too.
Result: satisfied

Ask: Check `C=CC(=O)NCCCN(C(=O)C1CCC1)C1CC1` too.
Result: not satisfied

Ask: Now try `O=C(CCl)NCCc1c[nH]c2ccccc12` .
Result: not satisfied

Ask: Also check `Cn1cc(S(=O)(=O)N2CCOCC2)cc1C(=O)NC(=O)CCl`
Result: not satisfied

Ask: Follow-up entry: C=CC(=O)N1CC2CC2C1 (stereo not drawn)
Result: not satisfied

Ask: Let us now turn to `C=CC(=O)Nc1ccccc1C#N`
Result: satisfied

Ask: Another molecule to check: `O=C(CCl)N1CCSc2ccccc21`
Result: satisfied

Ask: Next molecule up: C=CC(=O)N1CCCCCC1c1ccc(N(C)C)cc1 (stereo not drawn)
Result: not satisfied

Ask: Another molecule: `C=CC(=O)Nc1ccc2c(c1)OC1(CCCC1)O2`
Result: not satisfied

Ask: Would you kindly repeat that for C=CC(=O)N1CCN(S(C)(=O)=O)CC1c1ccccc1 (stereo not drawn) ?
Result: satisfied

Ask: # repeat for C=CC(=O)N1CCN(C(=O)OCC)CC1c1cccs1 (stereo not drawn)
Result: satisfied

Ask: For `O=C(c1ccccc1)[C@@H]1O[C@H]1c1ccccc1` then?
Result: not satisfied

Ask: And what about the molecule `C=CC(=O)N1CCN(Cc2ccc(Cl)cc2)CC1` ?
Result: not satisfied

Ask: Also need `C=CC(=O)Nc1ccccc1N1CCOCC1` , thanks.
Result: not satisfied

Ask: What do you have for C=CC(=O)NC1CC(NC(=O)C2CCC2)C1 (stereo not drawn) ?
Result: not satisfied

Ask: One more molecule: `C=CC(=O)N(Cc1ccc2c(c1)CCO2)C1CCCC1`
Result: satisfied

Ask: Next up: `C=CC(=O)Nc1ccc(C(=O)c2ccccc2)cc1`
Result: satisfied

Ask: // same read-out, input: `C=CC(=O)Nc1ccc(C(=O)NC2CCCC2)cc1`
Result: satisfied

* * *

# test_target: Cdk2(S276C) (C177A) (Homo sapiens, UniProt P24941, C177A/S276C)
# Construct: poly-histidine; made in house; host or cells: E. coli
# procedure_details: Kinetic thiol consumption assay with Cdk2 mutant S276C
# Format: binding
# measurement_parameters: Protein: Cdk2; cysteine position S276C; additional mutation C177A; in h^-1
measured_parameter: Rate constant with Cdk2 S276C
Give the figure by itself; no unit, no explanation.

Ask: Fill blank: measured Rate constant with Cdk2 S276C of the compound C=CC(=O)NCC1(NC(=O)OC(C)(C)C)CCCCC1 [EL-1143] is ____.
Result: 0.03045

Ask: Would you kindly repeat that for C=CC(=O)NC1CCN(Cc2ccccc2)CC1 [BN-78] ?
Result: 0.00118

Ask: Same question, C=CC(=O)N1CCN(C(=O)OC(C)(C)C)c2ccccc21 [EL-1157] this time
Result: 0.07038

Ask: Next entry: C=CC(=O)N1CCn2cccc2C1c1ccccc1 (centres unmarked) [CA-187]
Result: 0.08156

Ask: Now consider C=CC(=O)NC(C)c1cccc(N2CCOCC2)c1 (centres unmarked) [EL-1153] and answer again.
Result: 7.68E−14

Ask: C=CC(=O)N(Cc1ccco1)Cc1ccco1 [CA-099/153] , same question.
Result: 0.481

Ask: Can you handle CC1CN(C(=O)CCl)CC(C)O1 (centres unmarked) [EN012] next?
Result: 0.1594

Ask: Let us now turn to C=CC(=O)NC1C[C@@H](C(=C)C)CC=C1C (some centres unmarked) [EL-1074]
Result: 0.004381

Ask: Also C=CC(=O)NC1(c2noc(C)n2)CCCCCC1 [CA-162] , if possible.
Result: 0.06352

Ask: Cool, now C=CC(=O)N1CC2CCN(Cc3ccccc3)C2C1 (centres unmarked) [CA-190]
Result: 0.004934

Ask: Okay, and C=CC(=O)Nc1cccc(-c2nnnn2C2CC2)c1 [CA-057] ?
Result: 0.04258

* * *

Could you please report measured Rate constant with Cdk2 (k(Cdk2)) for the items listed next?
# test_target: human cyclin-dependent kinase 2 (Cdk2) (Homo sapiens)
# Construct: poly-histidine; made in house; host or cells: E. coli
# procedure_details: Kinetic thiol consumption assay with wild type Cdk2 (C177)
# Assay type: binding
# Design: unit not given here
# measurement_parameters: 500 μM ligand, 5 μM thiol, phosphate buffer pH 8
# Text: A library of 120 acrylamides was screened against a) human cyclin-dependent kinase 2 (Cdk2, which contains one surface exposed cysteine residue—C177), prepared by cloning cDNA into the pRSETA bacterial expression vector to generate a poly-histidine tagged Cdk2 fusion that was purified from E. coli using standard techniques, and b) a model thiol (specific details are given below). […] Fluorescence measurements were normalized against a DMSO/thiol only control and plotted against time. […]
Returns: the value as a bare number; no unit string appended.

Ask: Using the record for C=CC(=O)N(Cc1ccc2c(c1)CCO2)C1CCCC1 [CA-184] , report its Rate constant with Cdk2 (k(Cdk2)).
Result: 0.2235

Ask: Also C=CC(=O)NCC1(NC(=O)OC(C)(C)C)CCCCC1 [EL-1143] , if possible.
Result: 0.014

Ask: Same question for C=CC(=O)NCc1ccc(F)cc1 [BN-62] please.
Result: 0.0019

Ask: C=CC(=O)Nc1cccc2ncccc12 [CA-012] , same question.
Result: 0.09635

Ask: What about C=CC(=O)N1C(=O)CC(c2ccccc2)N(C(=O)C=C)c2ccccc21 (centres unmarked) [CA-165-1] ?
Result: 0.3945

Ask: Repeat for the following compound: C=CC(=O)NC1CC(NC(=O)C2CCC2)C1 (centres unmarked) [CA-202]
Result: 0.00543

Ask: Now consider C=CC(=O)NC1C2C3CCC(C3)C12 (centres unmarked) [CA-097] .
Result: 0.00152

Ask: C=CC(=O)NC1(C2CC2)CC1 [CA-047] , same question.
Result: 0.0056

Ask: Next entry: C=CC(=O)Nc1cccc(C(F)(F)F)c1 [BN-80]
Result: 0.0419

Ask: Continue with C=CC(=O)Nc1ccc(C23CC4CC(CC(O)(C4)C2)C3)cc1 [CA-194]
Result: 0.00505

Ask: Check C=CC(=O)N1CCC2(CC1)CC2C(=O)OC (centres unmarked) [CA-039] too.
Result: 0.00187
